test: Toxicity by high-content imaging; format: cell-based, Aedes albopictus; settings: Aedes albopictus, C6/36 cells, C6/36; read-out: CC50
ENDPOINT: CC50
The answer should read as a number with its unit following.

Task item: Recorded CC50 of COc1cc(N[C@H](C(=O)c2c[nH]c3ccc(OC(F)(F)F)cc23)c2ccc(Cl)cc2OC)cc(S(C)(=O)=O)c1 , please.
Reply: 14.4 µM

###

system: DENV-2 RL; test: microbe, parasite or virus in culture; format: cell-based; details: A sample, passage 22; read-out: EC50 values Ave
ENDPOINT: EC50 (nM)
Give bare numbers, in nM.

Task item: I have this molecule here, COc1cc(N[C@H](C(=O)c2c[nH]c3ccc(OC(F)(F)F)cc23)c2ccc(Cl)cc2OC)cc(S(C)(=O)=O)c1 , and I need its recorded EC50.
Reply: 32.2

###

tested on: DENV-2 Asian II Papua New Guinea; assay: microbe, parasite or virus in culture; assay type: cell-based; conditions: Dengue virus, DENV2, Vero C1008; two of two values below threshold
ENDPOINT: EC50

Task item: Find EC50 (DENV-2 Asian II Papua New Guinea) for the entry COc1cc(N[C@H](C(=O)c2c[nH]c3ccc(OC(F)(F)F)cc23)c2ccc(Cl)cc2OC)cc(S(C)(=O)=O)c1 [JNJ-1802]
Reply: < 0.04 nM

###

assay: Pharmacokinetics in mice, i.v. and oral; format: in vivo, CD-1 mice; settings: male, CD-1, plasma; mouse oral 10 mg/kg
ENDPOINT: Cmax (ng/mL)
Give bare numbers, in ng/mL.

Task item: Dear colleague, I am looking for the recorded Cmax of the following molecule: COc1cc(N[C@H](C(=O)c2c[nH]c3ccc(OC(F)(F)F)cc23)c2ccc(Cl)cc2OC)cc(S(C)(=O)=O)c1
Reply: 2730

###

test: ATPLite cell viability assay; type: cell-based, African green monkey; details: African green monkey, Vero cells, Vero
ENDPOINT: CC50 (µM)
Answers are plain numbers, in µM.

Task item: Which CC50 is listed for COc1cc(N[C@H](C(=O)c2c[nH]c3ccc(OC(F)(F)F)cc23)c2ccc(Cl)cc2OC)cc(S(C)(=O)=O)c1 [JNJ-1802] ?
Reply: 2.61

###

test system: HCV Genotype 1b replicon; experiment: microbe, parasite or virus in culture; assay type: cell-based; settings: Hepatitis C virus, read-out: EC50, Mean
ENDPOINT: EC50 (µM)
Give bare numbers, in µM.

Task item: Can you share its EC50? I mean this compound: COc1cc(N[C@H](C(=O)c2c[nH]c3ccc(OC(F)(F)F)cc23)c2ccc(Cl)cc2OC)cc(S(C)(=O)=O)c1 [JNJ-1802]
Reply: 5.45

###

test: Plasma protein binding; format: in vitro ADME; conditions: rhesus monkey, rhesus macaques
ENDPOINT: fraction unbound

Task item: Look up fraction unbound: COc1cc(N[C@H](C(=O)c2c[nH]c3ccc(OC(F)(F)F)cc23)c2ccc(Cl)cc2OC)cc(S(C)(=O)=O)c1
Reply: < 0.001

###

test: MTS/PMS toxicity assay; assay type: cell-based, African green monkey; settings: African green monkey, Vero cells, Vero; read-out: CC50
ENDPOINT: CC50

Task item: Recorded CC50 of COc1cc(N[C@H](C(=O)c2c[nH]c3ccc(OC(F)(F)F)cc23)c2ccc(Cl)cc2OC)cc(S(C)(=O)=O)c1 , please.
Reply: > 2260 nM
